ASSAYED_TARGET: PI3K-α (Homo sapiens)
Sequence (P42336 whole entry, species assumed): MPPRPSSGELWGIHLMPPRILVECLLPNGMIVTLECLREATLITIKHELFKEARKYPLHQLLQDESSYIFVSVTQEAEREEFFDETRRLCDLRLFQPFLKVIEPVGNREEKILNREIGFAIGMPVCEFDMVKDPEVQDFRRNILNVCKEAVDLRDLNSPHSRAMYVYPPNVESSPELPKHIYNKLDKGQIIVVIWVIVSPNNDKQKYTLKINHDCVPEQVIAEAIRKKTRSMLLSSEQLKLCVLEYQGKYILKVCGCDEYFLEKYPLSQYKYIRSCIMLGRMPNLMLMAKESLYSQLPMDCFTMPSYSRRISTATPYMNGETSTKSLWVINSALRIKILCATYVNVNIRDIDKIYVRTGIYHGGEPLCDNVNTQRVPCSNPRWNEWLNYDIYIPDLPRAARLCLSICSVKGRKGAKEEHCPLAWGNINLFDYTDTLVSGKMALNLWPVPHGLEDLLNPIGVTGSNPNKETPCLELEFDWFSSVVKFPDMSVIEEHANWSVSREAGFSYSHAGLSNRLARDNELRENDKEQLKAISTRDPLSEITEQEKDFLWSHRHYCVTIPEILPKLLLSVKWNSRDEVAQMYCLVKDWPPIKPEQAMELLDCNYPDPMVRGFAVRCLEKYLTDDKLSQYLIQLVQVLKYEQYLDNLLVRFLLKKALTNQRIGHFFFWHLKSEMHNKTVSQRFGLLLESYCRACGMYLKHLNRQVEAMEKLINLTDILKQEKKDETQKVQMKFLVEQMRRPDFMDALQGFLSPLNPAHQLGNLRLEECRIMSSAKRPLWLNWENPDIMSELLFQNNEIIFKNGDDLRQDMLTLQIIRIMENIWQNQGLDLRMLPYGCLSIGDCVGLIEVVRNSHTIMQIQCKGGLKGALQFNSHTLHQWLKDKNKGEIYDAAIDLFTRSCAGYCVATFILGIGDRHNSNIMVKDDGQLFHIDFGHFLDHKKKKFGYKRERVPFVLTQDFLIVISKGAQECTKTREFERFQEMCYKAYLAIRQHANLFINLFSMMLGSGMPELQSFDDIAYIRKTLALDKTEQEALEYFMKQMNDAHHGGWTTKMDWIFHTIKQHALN
Sequence (P27986 whole entry partner, species assumed): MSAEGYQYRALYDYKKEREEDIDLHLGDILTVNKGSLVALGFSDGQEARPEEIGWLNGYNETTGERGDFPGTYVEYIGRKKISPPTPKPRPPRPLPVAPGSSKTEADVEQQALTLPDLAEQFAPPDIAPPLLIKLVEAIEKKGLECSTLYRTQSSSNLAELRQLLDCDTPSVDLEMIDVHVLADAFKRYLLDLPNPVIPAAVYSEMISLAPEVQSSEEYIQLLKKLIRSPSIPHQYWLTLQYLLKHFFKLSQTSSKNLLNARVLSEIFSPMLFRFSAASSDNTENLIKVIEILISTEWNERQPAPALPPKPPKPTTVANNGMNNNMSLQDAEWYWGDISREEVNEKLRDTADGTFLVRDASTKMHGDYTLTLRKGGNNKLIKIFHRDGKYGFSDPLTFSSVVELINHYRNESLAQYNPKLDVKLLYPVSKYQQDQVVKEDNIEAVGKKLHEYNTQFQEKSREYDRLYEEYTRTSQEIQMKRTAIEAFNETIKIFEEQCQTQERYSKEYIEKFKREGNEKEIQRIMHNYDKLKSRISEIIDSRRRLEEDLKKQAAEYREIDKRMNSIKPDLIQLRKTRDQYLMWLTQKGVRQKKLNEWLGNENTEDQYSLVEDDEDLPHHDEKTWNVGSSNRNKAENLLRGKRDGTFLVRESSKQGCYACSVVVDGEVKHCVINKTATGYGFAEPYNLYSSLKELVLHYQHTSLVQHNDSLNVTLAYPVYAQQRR
ASSAY_NOTES: PI3K-alpha fluorescence polarization assay
CONDITION_NOTES: read-out: IC50 PI3Kα; listed as 335
MEASUREMENT_KIND: IC50 (nM)
Unit nM implied. Number only.

In plain terms, CN1CCN(c2ccc(Nc3nc(-c4ccc(NC(=O)Nc5ccccc5)cc4)nc(N4CC5CCC(C4)O5)n3)cc2)CC1 [Example 319] has a documented IC50 of 81

###

ASSAYED_TARGET: PI3K-α (Homo sapiens)
ASSAY_NOTES: PI3K-alpha fluorescence polarization assay
CONDITION_NOTES: read-out: IC50 PI3Kα; listed as 715
MEASUREMENT_KIND: pIC50
# log scale: pIC50 equals minus log10 of the concentration in mol/L

In plain terms, `COCCOc1nc(-c2ccc(NC(=O)Nc3ccc(C(=O)OC)cc3)cc2)nc(N2CCOCC2)n1` has a documented pIC50 of 7.23

###

# maps each entry to its log10 IC50
ASSAYED_TARGET: Human mTOR (FLAG-TOR) (Homo sapiens, UniProt P42345)
Sequence (P42345 1360-2549 limits assumed): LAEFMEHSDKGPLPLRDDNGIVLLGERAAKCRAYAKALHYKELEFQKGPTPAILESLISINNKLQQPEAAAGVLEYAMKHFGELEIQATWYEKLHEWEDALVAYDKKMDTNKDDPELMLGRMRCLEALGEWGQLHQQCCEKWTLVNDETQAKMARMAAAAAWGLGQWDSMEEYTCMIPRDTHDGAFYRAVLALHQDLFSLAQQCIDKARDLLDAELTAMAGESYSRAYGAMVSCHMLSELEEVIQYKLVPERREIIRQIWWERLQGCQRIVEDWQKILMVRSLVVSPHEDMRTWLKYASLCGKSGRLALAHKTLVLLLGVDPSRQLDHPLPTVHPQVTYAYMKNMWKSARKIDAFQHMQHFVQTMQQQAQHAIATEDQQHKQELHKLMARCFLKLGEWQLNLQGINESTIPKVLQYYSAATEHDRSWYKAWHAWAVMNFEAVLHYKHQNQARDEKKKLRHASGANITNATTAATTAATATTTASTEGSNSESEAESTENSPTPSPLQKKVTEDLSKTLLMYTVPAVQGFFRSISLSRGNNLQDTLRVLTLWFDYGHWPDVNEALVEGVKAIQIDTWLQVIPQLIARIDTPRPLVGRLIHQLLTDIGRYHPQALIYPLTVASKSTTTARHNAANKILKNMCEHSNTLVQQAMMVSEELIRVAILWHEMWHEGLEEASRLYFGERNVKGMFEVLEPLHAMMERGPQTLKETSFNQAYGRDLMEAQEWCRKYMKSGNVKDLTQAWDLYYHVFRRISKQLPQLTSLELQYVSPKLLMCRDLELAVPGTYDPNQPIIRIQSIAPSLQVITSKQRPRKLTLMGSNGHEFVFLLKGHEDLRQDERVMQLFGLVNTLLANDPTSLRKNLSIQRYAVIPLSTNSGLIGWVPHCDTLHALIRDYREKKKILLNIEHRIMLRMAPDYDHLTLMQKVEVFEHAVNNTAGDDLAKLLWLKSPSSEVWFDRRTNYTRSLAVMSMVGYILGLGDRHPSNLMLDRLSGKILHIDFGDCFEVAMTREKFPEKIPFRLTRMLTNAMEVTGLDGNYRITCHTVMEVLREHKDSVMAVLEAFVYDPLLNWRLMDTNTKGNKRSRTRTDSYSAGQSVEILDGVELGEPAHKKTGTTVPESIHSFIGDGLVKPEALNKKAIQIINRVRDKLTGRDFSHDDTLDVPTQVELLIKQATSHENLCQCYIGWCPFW
ASSAY_NOTES: mTOR kinase assay (DELFIA format, purified enzyme)
Assay type: biochemical
CONDITION_NOTES: read-out: IC50 mTOR
Answers are given as log10 of IC50 in nM.

In plain terms, `COC(=O)c1ccc(NC(=O)Nc2ccc(-c3nc(C(C)C)nc(N4CCOCC4)n3)cc2)cc1` has a documented log10 IC50 of 0.72

In plain terms, `CC(C)(C)OC(=O)N1CCC(Oc2nc(-c3ccc(NC(=O)Nc4ccncc4)cc3)nc(N3CCOCC3)n2)CC1` has a documented log10 IC50 of 0.13

In plain terms, CC(O)c1ccc(NC(=O)Nc2ccc(-c3nc(N4CCOCC4)nc(N4CCOC[C@@H]4C)n3)cc2)cc1 (some centres unmarked) has a documented log10 IC50 of 0.93

More entries:
In plain terms, `CN(C)CCN(C)C(=O)c1ccc(NC(=O)Nc2ccc(-c3nc(-c4ccccc4)nc(N4CCOCC4)n3)cc2)cc1` has a documented log10 IC50 of -2.07

In plain terms, `Cc1cc(NC(=O)Nc2ccc(-c3nc(N4CCOCC4)nc(N4CCC5(CC4)OCCO5)n3)cc2)ccn1` has a documented log10 IC50 of 1.53

###

ASSAYED_TARGET: Human mTOR (FLAG-TOR) (Homo sapiens, UniProt P42345)
ASSAY_NOTES: mTOR kinase assay (DELFIA format, purified enzyme)
Format: biochemical
CONDITION_NOTES: read-out: IC50 mTOR
# maps each entry to its IC50
Unit nM implied. Number only.

Solved entries:
Human mTOR (FLAG-TOR) (Homo sapiens, UniProt P42345) assay, molecule `O=C(Nc1ccc(C(=O)NCCN2CCCC2)cc1)Nc1ccc(-c2nc(C3CCOCC3)nc(N3CCOCC3)n2)cc1` , recorded IC50 = 0.12

Human mTOR (FLAG-TOR) (Homo sapiens, UniProt P42345) assay, molecule `CC(C)(C)Nc1nc(-c2ccc(NC(=O)Nc3cccnc3)cc2)nc(N2CC3CCC(C2)O3)n1` , recorded IC50 = 0.29

More entries:
Human mTOR (FLAG-TOR) (Homo sapiens, UniProt P42345) assay, molecule `CC(C)Nc1nc(-c2ccc(NC(=O)Nc3ccc(CN4CCN(C)CC4)cc3)cc2)nc(N2C3CCC2COC3)n1` , recorded IC50 = 7.3

Human mTOR (FLAG-TOR) (Homo sapiens, UniProt P42345) assay, molecule `CCCCc1nc(-c2ccc(NC(=O)Nc3ccc(C(=O)Nc4ccc(N5CCN(C)CC5)cc4)cc3)cc2)nc(N2CCOCC2)n1` , recorded IC50 = 9

Human mTOR (FLAG-TOR) (Homo sapiens, UniProt P42345) assay, molecule `CCN1CCN(C(=O)c2ccc(NC(=O)Nc3ccc(-c4nc(N5CCOCC5)nc(N5C6CCC5COC6)n4)cc3)cc2)CC1` , recorded IC50 = 0.19

Human mTOR (FLAG-TOR) (Homo sapiens, UniProt P42345) assay, molecule `Cc1ccc(-c2nc(-c3ccc(NC(=O)Nc4ccc(C(=O)N5CCN(C(C)C)CC5)cc4)cc3)nc(N3CCOCC3)n2)cc1` , recorded IC50 = 7.75

Human mTOR (FLAG-TOR) (Homo sapiens, UniProt P42345) assay, molecule `CCNC1CCN(c2nc(-c3ccc(NC(=O)Nc4ccncc4)cc3)nc(N3CC4CCC(C3)O4)n2)CC1` , recorded IC50 = 140
